Target: von Willebrand factor (VWF) (Homo sapiens, UniProt P04275 P04275:764-2813)
Assay: filter; Bmax 37%; 2 mM CaCl2, 37 C
Details: tags: factor VIII free, Haematologic Technologies Inc; label: 5'-32P
Method: Affinity constants (Kd values) were determined using double-filter nitrocellulose filter binding assays (Rusconi et al, Thromb. Haemost. $4:841-848 (2000)). All binding studies were performed in binding buffer F (20 mM HEPES, pH 7.4, 150 mM NaCl, 2 mM CaCl₂, and 0.01% BSA) at 37° C. […] The fraction of the nucleic acid-protein complex which bound to the nitrocellulose membrane was quantified with a phosphorimager (Molecular Dynamics, Sunnyvale, Calif.). […]
Readout Kind: Kd (nM)
Numbers only, in nM.

Problem: Endpoint output: Kd of CCCACGAACUGCCCUCGAUCGACGCACAGACGU (ssRNA, 2'-F C and U; 2'-OH A and G; 3' idT) [T74] . Value?
Solution: 23

The measured values listed here are drawn from patent US20190218553.
